Experiment: Mammalian toxicity, oral, Swiss white mice (LD50)
Assay type: in vivo
Conditions: mouse, in vivo, propylene glycol carrier
Method: For mice toxicity, the compound was dissolved in propyleneglycol or corn oil as a carrier and all compounds were tested at the level up to 1,000 mg/kg. All of the above noted compounds tested were lower in toxicity as compared with the parent compounds. Mammalian toxicity was determined against Swiss white mice.
# maps each entry to its log10(LD50)
metric: log10(LD50) (log10 of the value in mg/kg)

{"compound": "CN(C(=O)Oc1cccc2c1OC(C)(C)C2)[S+]([O-])SCCS[S+]([O-])N(C)C(=O)Oc1cccc2c1OC(C)(C)C2 (stereo not shown)", "log10(LD50)": 1.94}
{"compound": "CNC(=O)ON=C(SC)C(=O)N(C)C [oxamyl, reference compound]", "log10(LD50)": 0.57}
{"compound": "CSC(=NOC(=O)N(C)S(=O)OC1COC(c2ccccc2)OC1)C(=O)N(C)C (stereo not shown)", "log10(LD50)": 1.40}
{"compound": "CNC(=O)Oc1cccc2c1OC(C)(C)C2 [carbofuran, reference compound]", "log10(LD50)": 0.30}
{"compound": "CSC(C)=NOC(=O)N(C)S(=O)OC1C2OC(C)(C)OC2COC12COC(C)(C)O2 (stereo not shown)", "log10(LD50)": 3.00}
{"compound": "CSC(=NOC(=O)N(C)S(=O)OCC12OCC3OC(C)(C)OC3C1OC(C)(C)O2)C(=O)N(C)C (stereo not shown)", "log10(LD50)": 1.64}
{"compound": "CSC(C)=NOC(=O)N(C)S(=O)OCCOS(=O)N(C)C(=O)ON=C(C)SC (stereo not shown)", "log10(LD50)": 1.72}
{"compound": "CSC(=NOC(=O)N(C)S(=O)OCC(COC(C)C)OS(=O)N(C)C(=O)ON=C(SC)C(=O)N(C)C)C(=O)N(C)C (stereo not shown)", "log10(LD50)": 1.20}
{"compound": "CN(C(=O)Oc1cccc2c1OC(C)(C)C2)S(=O)OCCCOS(=O)N(C)C(=O)Oc1cccc2c1OC(C)(C)C2 (stereo not shown)", "log10(LD50)": 1.96}
{"compound": "CSC(C)=NOC(=O)N(C)[S+]([O-])SCCS[S+]([O-])N(C)C(=O)ON=C(C)SC (stereo not shown)", "log10(LD50)": 2.40}
{"compound": "CSC(C)=NOC(=O)N(C)S(=O)OCC12OCC3OC(C)(C)OC3C1OC(C)(C)O2 (stereo not shown)", "log10(LD50)": 2.70}
{"compound": "CSC(C)=NOC(=O)N(C)S(=O)OC1COC(c2ccccc2)OC1 (stereo not shown)", "log10(LD50)": 1.93}
{"compound": "CSC(C)=NOC(=O)N(C)S(=O)OCC(COC(C)C)OS(=O)N(C)C(=O)ON=C(C)SC (stereo not shown)", "log10(LD50)": 2.23}

From: patent US4315026A
